- testName: Oral bioavailability in C57BL/6N mouse at 2 mg/kg
- Assay type: ADME, organism-based
- conditionDetails: in vivo
observable: bioavailability (%)

[a] c1ccc(-c2c[nH]c([C@H]3Cc4c([nH]c5ccccc45)C(C4CCCCC4)N3)n2)cc1 (stereo partly drawn)
[b] c1ccc(-c2c[nH]c([C@H]3Cc4c([nH]c5ccccc45)[C@@H](C4CCOCC4)N3)n2)cc1
[c] CCOCC1(COCC)N[C@@H](c2nc(-c3ccccc3)c[nH]2)Cc2c1[nH]c1ccccc21
Input: Which order do the above compounds take when sorted by rising bioavailability? Smallest first. Sort and list the labels as requested.
Output: c, a, b
(c: 4%, a: 15%, b: 45%)
